- Test system: 9L cells transduced by Ad.CMVdCK
- MEASUREMENT NOTES: Cytotoxic assay after adenoviral transduction
- Assay type: cell-based
- PARTICULARS: Rattus norvegicus, 24 h, Ad.CMVdCK MOI 0, 24 hours ara-C
TEST READOUT: pIC50
Please keep in mind that pIC50 is minus log10 of the molar concentration; only the number is needed.

Fill: pIC50 (9L cells transduced by Ad.CMVdCK) for this molecule "Nc1ccn([C@@H]2O[C@H](CO)[C@@H](O)[C@@H]2O)c(=O)n1"
6.52
